These entries and their values trace back to FireProtDB (doi:10.1021/bi060907v).

B1: Ribonuclease HII, O74035 (parent)
chain: MKIAGIDEAGRGPVIGPMVIAAVVVDENSLPKLEELKVRDSKKLTPKRREKLFNEILGVLDDYVILELPPDVIGSREGTLNEFEVENFAKALNSLKVKPDVIYADAADVDEERFARELGERLNFEAEVVAKHKADDIFPVVSAASILAKVTRDRAVEKLKEEYGEIGSGYPSDPRTRAFLENYYREHGEFPPIVRKGWKTLKKIAEKVESEKKAEERQATLDRYFRKV

Variants of: B1
Settings: Thermococcus kodakarensis (strain ATCC BAA-918 / JCM 12380 / KOD1); pH 9; Thermal; DSC; Gly-NaOH 20 mM; reversible: Yes; structure 1IO2; whole UniProt chain shown
Labelling: Tm reported below 90 °C becomes Criterion met; at or above becomes Criterion not met.

Task: is_below(Tm, 90 °C) for E8A ?
Output: Criterion not met

Task: // next record E8Q
Output: Criterion met
